Hey, just so you know, these numbers are from patent US6362206B1.

tested on: Candida albicans TA; experiment: Protective effect against Candida albicans infection in mice (oral, ED50 from survival rate); type: in vivo; details: 168 h; Crj: CDF1 mice inoculated i.v. with minimum lethal dose of Candida albicans TA; single oral dose immediately after infection as 30% HPCD solution; Reed and Muench method from survival rate 7 days after infection
Property Measured: ED50 (mg/kg)
Report the figure in mg/kg without appending any unit label.

# ED50 lookup, item C[C@@H](N1CCN(c2ccc(-n3ncnn3)cc2)C1=O)[C@](O)(Cn1cncn1)c1ccccc1F
0.8

# input molecule: C[C@@H](n1ccn(-c2ccc(-n3ncnn3)cc2)c1=O)[C@](O)(Cn1cncn1)c1ccc(F)cc1F ; wanted: its ED50
0.16

Look up ED50 for this molecule: C[C@@H](N1CCN(c2ccc(-n3cnnn3)cc2)C1=O)[C@](O)(Cn1cncn1)c1ccc(F)cc1F
0.89

Report ED50 for C[C@@H](n1ccn(-c2ccc(-n3cncn3)cc2)c1=O)[C@](O)(Cn1cncn1)c1ccccc1F please.
0.5

Dear colleague, I am looking for the recorded ED50 of the following molecule: C[C@@H](n1ncn(-c2ccc(-n3ncnn3)cc2)c1=O)[C@](O)(Cn1cncn1)c1ccc(F)cc1F
0.088

# get_value(readout='ED50', item= C[C@@H](N1CCN(c2ccc(-n3ccnn3)cc2)C1=O)[C@](O)(Cn1cncn1)c1ccc(F)cc1F )
0.71

Please report the recorded ED50 for C[C@@H](n1ncn(-c2ccc(-n3ccnn3)cc2)c1=O)[C@](O)(Cn1cncn1)c1ccc(F)cc1F .
0.35
